- Measurement target: 5-HT2A receptor (Homo sapiens, UniProt P28223)
- Construct: expressed in transfected cells; host or cells: NIH 3T3 (mouse fibroblast)
- Sequence (P28223 whole entry): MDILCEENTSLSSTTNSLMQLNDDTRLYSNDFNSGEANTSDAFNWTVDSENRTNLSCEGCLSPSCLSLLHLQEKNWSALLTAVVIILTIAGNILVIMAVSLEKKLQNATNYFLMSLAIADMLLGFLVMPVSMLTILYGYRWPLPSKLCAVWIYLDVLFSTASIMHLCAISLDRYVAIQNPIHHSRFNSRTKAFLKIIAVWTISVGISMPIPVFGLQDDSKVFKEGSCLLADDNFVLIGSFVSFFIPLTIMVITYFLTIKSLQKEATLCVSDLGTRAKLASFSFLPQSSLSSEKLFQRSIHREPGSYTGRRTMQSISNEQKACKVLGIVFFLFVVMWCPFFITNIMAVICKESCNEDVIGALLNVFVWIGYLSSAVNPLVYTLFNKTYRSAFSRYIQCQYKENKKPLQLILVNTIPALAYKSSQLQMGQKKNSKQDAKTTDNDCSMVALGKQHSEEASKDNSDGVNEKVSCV
- Experiment summary: R-SAT functional assay, constitutively active wild type 5-HT2A receptor in NIH 3T3 cells
- Type: cell-based
- Condition context: Table 3; 50 ng/well receptor DNA; read-out: 5-HT2A Receptor Negative Log EC50 (inverse agonism) (converted)
Readout type: EC50
Answer as a quantity: numeral, then unit.

Here are 5 compounds together with their reported answers.
Compound	EC50
O=C(CCCN1CCC(O)(c2cccc(C(F)(F)F)c2)CC1)c1ccc(F)cc1	25.7 nM
O=C1CC2(CCCC2)CC(=O)N1CCCCN1CCN(c2nsc3ccccc23)CC1	1.82 nM
CN1CCN(C2=Nc3ccccc3Cc3ccccc32)CC1	30.2 nM
CN1CCN(C2=Nc3ccccc3Sc3ccc(Cl)cc32)CC1	2.82 nM
OCCN1CCN([C@@H]2C[C@@H](c3ccc(F)cc3)c3ccc(C(F)(F)F)cc32)CC1 (racemic)	0.955 nM

Need EC50 of CCNC(=O)N1CCN(CCCC(c2ccc(F)cc2)c2ccc(F)cc2)CC1 [Amperozide] , thanks.
15.8 nM

Each recorded value in this set is attributed to patent US6358698B1.
